# SYSTEM: RXFP2 (Homo sapiens, UniProt Q8WXD0)
# Construct: purchased Promega (in-house HiBiT-GPCR construct library, NanoBRET)
# Sequence (Q8WXD0 whole entry): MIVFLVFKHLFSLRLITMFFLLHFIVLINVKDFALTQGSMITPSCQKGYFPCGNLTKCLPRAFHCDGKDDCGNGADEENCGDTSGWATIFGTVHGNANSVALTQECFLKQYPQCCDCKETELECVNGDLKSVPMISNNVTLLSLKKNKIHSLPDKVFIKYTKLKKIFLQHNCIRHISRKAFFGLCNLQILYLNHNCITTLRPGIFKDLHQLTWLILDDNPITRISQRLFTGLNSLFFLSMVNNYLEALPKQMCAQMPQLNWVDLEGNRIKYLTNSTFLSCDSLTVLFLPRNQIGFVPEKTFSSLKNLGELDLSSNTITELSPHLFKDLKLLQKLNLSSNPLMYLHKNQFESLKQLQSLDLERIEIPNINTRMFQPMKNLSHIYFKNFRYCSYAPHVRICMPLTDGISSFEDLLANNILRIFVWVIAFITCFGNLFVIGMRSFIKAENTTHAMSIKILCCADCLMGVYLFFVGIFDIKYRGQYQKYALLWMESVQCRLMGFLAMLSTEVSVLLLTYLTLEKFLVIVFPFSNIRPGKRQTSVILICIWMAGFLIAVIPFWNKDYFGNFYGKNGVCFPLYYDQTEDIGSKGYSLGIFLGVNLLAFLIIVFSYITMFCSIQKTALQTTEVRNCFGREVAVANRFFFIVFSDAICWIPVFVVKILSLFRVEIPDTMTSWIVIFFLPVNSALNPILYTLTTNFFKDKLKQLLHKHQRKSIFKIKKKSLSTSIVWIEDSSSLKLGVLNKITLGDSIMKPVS
# ASSAY NOTES: NanoBRET screen HiBiT-RXFP2 in HEK293
# Format: binding
# MEASUREMENT SETUP: RXFP2; tracer 0.1μM
READOUT LABEL: NanoBRET Fold Response
Answers are plain numbers.

INSERT INTO measurements (compound, readout_label, recorded_result) VALUES
  ('Cc1nc2n(c(=O)c1CCN1CCC(c3noc4cc(F)ccc34)CC1)CCCC2OC(=O)NCCOCCOCCOCCOCCNC(=O)CCc1ccc2n1[B-](F)(F)[N+]1=C(c3ccc[nH]3)C=CC1=C2 (stereo not drawn)', 'NanoBRET Fold Response', 1.20),
  ('COc1ccccc1N1CCN(CCCCN2C(=O)c3ccc(CNC(=O)CCOCCNC(=O)c4ccc(CNC(=O)CCc5ccc6n5[B-](F)(F)[N+]5=C(c7ccc[nH]7)C=CC5=C6)cc4)cc3C2=O)CC1', 'NanoBRET Fold Response', 0.63);

Next:
Please fill in: NanoBRET Fold Response reported for `CCCn1c(=O)c2[nH]c(-c3ccc(OCC(=O)NCCNC(=O)CCOCCNC(=O)c4ccc(CNC(=O)CCc5ccc6n5[B-](F)(F)[N+]5=C(c7ccc[nH]7)C=CC5=C6)cc4)cc3)nc2n(CCC)c1=O` = 1.20

====

# SYSTEM: NPY5R (Homo sapiens, UniProt Q15761)
# Construct: purchased Promega (in-house HiBiT-GPCR construct library, NanoBRET)
# Sequence (Q15761 whole entry): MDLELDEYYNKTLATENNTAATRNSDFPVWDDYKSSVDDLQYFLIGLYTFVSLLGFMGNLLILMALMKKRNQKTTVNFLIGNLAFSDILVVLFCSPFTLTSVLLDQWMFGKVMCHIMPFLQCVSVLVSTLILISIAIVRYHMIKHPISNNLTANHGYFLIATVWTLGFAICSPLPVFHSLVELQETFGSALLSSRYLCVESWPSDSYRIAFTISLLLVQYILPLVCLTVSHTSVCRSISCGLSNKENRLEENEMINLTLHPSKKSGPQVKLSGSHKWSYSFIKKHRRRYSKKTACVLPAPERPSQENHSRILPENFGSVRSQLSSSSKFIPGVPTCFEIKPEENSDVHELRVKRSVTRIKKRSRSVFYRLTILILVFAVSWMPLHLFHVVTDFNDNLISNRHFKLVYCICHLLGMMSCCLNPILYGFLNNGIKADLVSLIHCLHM
# ASSAY NOTES: NanoBRET screen HiBiT-NPY5R in HEK293
# Format: binding
# MEASUREMENT SETUP: NPY5R; tracer 1μM
# Procedure: Each tracer candidate was screened across the entire library of HiBiT-GPCR constructs using NanoBRET as the detection modality. As depicted in Figure 4A, the specificity of interactions was evaluated through decrease in BRET due to competitive displacement of a bound tracer by excess parental compound. Each tracer was analyzed for binding to each HiBiT-GPCR fusion in the absence and in the presence of competing parental compound. […]
READOUT LABEL: NanoBRET Fold Response
One number for each entry.

INSERT INTO assay_data (molecule, recorded_result) VALUES
  ('CC(C)N(CC[C@H](c1ccccc1)c1cc(CCNC(=O)CCOCCOCCOCCOCCNC(=O)CCc2ccc3n2[B-](F)(F)[N+]2=C(c4ccc[nH]4)C=CC2=C3)ccc1O)C(C)C', 0.95);

Consider the following items and state reported NanoBRET Fold Response for each.
1. COc1ccccc1N1CCN(CCCCN2C(=O)c3ccc(CNC(=O)CCOCCNC(=O)c4ccc(CNC(=O)CCc5ccc6n5[B-](F)(F)[N+]5=C(c7ccc[nH]7)C=CC5=C6)cc4)cc3C2=O)CC1
2. Cc1cc2c(s1)Nc1ccccc1N=C2N1CCN(CCCNC(=O)CCOCCOCCOCCOCCNC(=O)CCc2ccc3n2[B-](F)(F)[N+]2=C(c4ccc[nH]4)C=CC2=C3)CC1
3. O=C(CCc1ccc2n1[B-](F)(F)[N+]1=C(c3ccc[nH]3)C=CC1=C2)NCCOCCOCCNC(=O)OCCOCCN1CCN(C2=Nc3ccccc3Sc3ccccc32)CC1
4. CC(C)N(CC[C@H](c1ccccc1)c1cc(CCNC(=O)c2ccc(CNC(=O)CCc3ccc4n3[B-](F)(F)[N+]3=C(c5ccc[nH]5)C=CC3=C4)cc2)ccc1O)C(C)C

*A*
1. 0.97
2. 1.01
3. 0.87
4. 0.99

Consider the following items and state reported NanoBRET Fold Response for each.
1. N#CN=C(NCCCOc1cccc(CN2CCCCC2)c1)NCCNC(=O)CCOCCOCCOCCOCCNC(=O)CCc1ccc2n1[B-](F)(F)[N+]1=C(c3ccc[nH]3)C=CC1=C2
2. CCCn1c(=O)c2[nH]c(-c3ccc(OCC(=O)NCCNC(=O)CCOCCNC(=O)c4ccc(CNC(=O)CCc5ccc6n5[B-](F)(F)[N+]5=C(c7ccc[nH]7)C=CC5=C6)cc4)cc3)nc2n(CCC)c1=O
3. Cc1nc2n(c(=O)c1CCN1CCC(c3noc4cc(F)ccc34)CC1)CCCC2OC(=O)NCCOCCOCCOCCOCCNC(=O)CCc1ccc2n1[B-](F)(F)[N+]1=C(c3ccc[nH]3)C=CC1=C2 (stereo not drawn)
4. O=C(CCOCCOCCOCCOCCNC(=O)CCc1ccc2n1[B-](F)(F)[N+]1=C(c3ccc[nH]3)C=CC1=C2)NCCCN1CCN(C2=Nc3ccccc3Oc3ccc(Cl)cc32)CC1

*A*
1. 0.97
2. 1.10
3. 0.96
4. 1.09

====

# SYSTEM: GRM1 (Homo sapiens)
# Construct: purchased Promega (in-house HiBiT-GPCR construct library, NanoBRET)
# Sequence (Q13255 19-1194): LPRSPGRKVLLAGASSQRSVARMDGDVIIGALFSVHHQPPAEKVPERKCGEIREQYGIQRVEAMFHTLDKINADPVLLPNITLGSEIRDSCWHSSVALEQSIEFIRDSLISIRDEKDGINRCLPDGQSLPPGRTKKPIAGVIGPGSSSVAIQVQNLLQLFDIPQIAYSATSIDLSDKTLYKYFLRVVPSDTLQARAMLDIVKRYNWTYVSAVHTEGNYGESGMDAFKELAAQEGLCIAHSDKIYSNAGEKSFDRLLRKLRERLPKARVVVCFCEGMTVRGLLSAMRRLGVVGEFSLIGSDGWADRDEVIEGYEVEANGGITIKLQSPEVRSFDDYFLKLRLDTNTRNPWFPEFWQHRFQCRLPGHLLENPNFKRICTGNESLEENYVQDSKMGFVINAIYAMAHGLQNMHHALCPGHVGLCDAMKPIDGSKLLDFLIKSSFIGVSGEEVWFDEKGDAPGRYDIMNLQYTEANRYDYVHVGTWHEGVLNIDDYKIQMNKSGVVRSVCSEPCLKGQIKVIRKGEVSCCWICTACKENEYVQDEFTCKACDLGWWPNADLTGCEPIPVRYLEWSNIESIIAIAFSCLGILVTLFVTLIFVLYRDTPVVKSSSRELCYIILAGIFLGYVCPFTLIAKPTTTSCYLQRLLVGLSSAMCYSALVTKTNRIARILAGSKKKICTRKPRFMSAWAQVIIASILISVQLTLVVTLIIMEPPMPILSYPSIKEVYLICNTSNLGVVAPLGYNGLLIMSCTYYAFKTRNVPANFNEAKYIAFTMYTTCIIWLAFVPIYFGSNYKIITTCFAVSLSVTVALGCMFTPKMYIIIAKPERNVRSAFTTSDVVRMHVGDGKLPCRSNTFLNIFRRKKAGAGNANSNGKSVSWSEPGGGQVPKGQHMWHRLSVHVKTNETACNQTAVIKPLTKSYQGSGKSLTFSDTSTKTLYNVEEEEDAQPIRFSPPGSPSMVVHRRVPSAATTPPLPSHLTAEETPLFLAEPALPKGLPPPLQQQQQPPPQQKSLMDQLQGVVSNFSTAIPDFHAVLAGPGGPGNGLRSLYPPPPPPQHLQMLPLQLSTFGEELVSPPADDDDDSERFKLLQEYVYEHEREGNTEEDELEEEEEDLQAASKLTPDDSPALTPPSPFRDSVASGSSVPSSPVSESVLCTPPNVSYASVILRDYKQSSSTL
# ASSAY NOTES: NanoBRET screen HiBiT-GRM1 in HEK293
# Format: binding
# MEASUREMENT SETUP: GRM1; tracer 0.1μM
Please go through the items and note down their NanoBRET Fold Response.
Answers are plain numbers.

In the examples that follow, each entry is paired with its recorded NanoBRET Fold Response.
INSERT INTO assay_data (compound, readout_label, recorded_result) VALUES
  ('CC(C)N(CC[C@H](c1ccccc1)c1cc(CCNC(=O)CCOCCOCCOCCOCCNC(=O)CCc2ccc3n2[B-](F)(F)[N+]2=C(c4ccc[nH]4)C=CC2=C3)ccc1O)C(C)C', 'NanoBRET Fold Response', 0.94),
  ('N#CN=C(NCCCOc1cccc(CN2CCCCC2)c1)NCCNC(=O)CCOCCOCCOCCOCCNC(=O)CCc1ccc2n1[B-](F)(F)[N+]1=C(c3ccc[nH]3)C=CC1=C2', 'NanoBRET Fold Response', 0.59);

Consider the following items and state reported NanoBRET Fold Response for each.
1. CCCn1c(=O)c2[nH]c(-c3ccc(OCC(=O)NCCNC(=O)CCOCCNC(=O)c4ccc(CNC(=O)CCc5ccc6n5[B-](F)(F)[N+]5=C(c7ccc[nH]7)C=CC5=C6)cc4)cc3)nc2n(CCC)c1=O
2. O=C(CCc1ccc2n1[B-](F)(F)[N+]1=C(c3ccc[nH]3)C=CC1=C2)NCc1ccc(C(=O)NCCOCCC(=O)N[C@@H]2CC[C@@]3(O)[C@H]4Cc5ccc(O)c6c5[C@@]3(CCN4CC3CC3)[C@H]2O6)cc1 [Naltrexone-3-NB590]
3. O=C(CCOCCOCCOCCOCCNC(=O)CCc1ccc2n1[B-](F)(F)[N+]1=C(c3ccc[nH]3)C=CC1=C2)NCCCN1CCN(C2=Nc3ccccc3Oc3ccc(Cl)cc32)CC1

*A*
1. 0.63
2. 0.93
3. 0.93

====

Please go through the items and note down their NanoBRET Fold Response.
# SYSTEM: OPRK1 (Homo sapiens, UniProt P41145)
# Construct: purchased Promega (in-house HiBiT-GPCR construct library, NanoBRET)
# Sequence (P41145 whole entry): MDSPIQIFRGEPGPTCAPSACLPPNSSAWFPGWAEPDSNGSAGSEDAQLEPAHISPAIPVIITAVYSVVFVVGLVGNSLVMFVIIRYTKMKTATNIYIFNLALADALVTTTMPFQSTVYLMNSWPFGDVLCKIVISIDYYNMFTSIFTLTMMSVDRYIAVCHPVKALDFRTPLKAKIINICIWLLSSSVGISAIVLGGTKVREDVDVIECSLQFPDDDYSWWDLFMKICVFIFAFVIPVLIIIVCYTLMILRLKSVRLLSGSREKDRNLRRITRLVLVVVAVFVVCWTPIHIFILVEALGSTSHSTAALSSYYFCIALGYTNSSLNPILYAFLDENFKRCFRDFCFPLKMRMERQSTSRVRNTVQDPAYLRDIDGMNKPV
# ASSAY NOTES: NanoBRET screen HiBiT-OPRK1 in HEK293
# Type: binding
# MEASUREMENT SETUP: OPRK1; tracer 0.1μM
Give bare numbers.

INSERT INTO measurements (compound, system, readout_label, recorded_result) VALUES
  ('O=C(CCc1ccc2n1[B-](F)(F)[N+]1=C(c3ccc[nH]3)C=CC1=C2)NCCOCCOCCNC(=O)OCCOCCN1CCN(C2=Nc3ccccc3Sc3ccccc32)CC1', 'OPRK1 (Homo sapiens, UniProt P41145)', 'NanoBRET Fold Response', 0.94);

Consider the following items and state reported NanoBRET Fold Response for each.
1. O=C(CCOCCOCCOCCOCCNC(=O)CCc1ccc2n1[B-](F)(F)[N+]1=C(c3ccc[nH]3)C=CC1=C2)NCCCN1CCN(C2=Nc3ccccc3Oc3ccc(Cl)cc32)CC1
2. COc1ccccc1N1CCN(CCCCN2C(=O)c3ccc(CNC(=O)CCOCCOCCOCCOCCNC(=O)CCc4ccc5n4[B-](F)(F)[N+]4=C(c6ccc[nH]6)C=CC4=C5)cc3C2=O)CC1
3. CC(C)N(CC[C@H](c1ccccc1)c1cc(CCNC(=O)c2ccc(CNC(=O)CCc3ccc4n3[B-](F)(F)[N+]3=C(c5ccc[nH]5)C=CC3=C4)cc2)ccc1O)C(C)C

*A*
1. 1.03
2. 1.02
3. 0.90

Please fill in: NanoBRET Fold Response reported for Cc1nc2n(c(=O)c1CCN1CCC(c3noc4cc(F)ccc34)CC1)CCCC2OC(=O)NCCOCCOCCOCCOCCNC(=O)CCc1ccc2n1[B-](F)(F)[N+]1=C(c3ccc[nH]3)C=CC1=C2 (centres unmarked) = 0.96

====

# SYSTEM: F2RL3 (Homo sapiens, UniProt Q96RI0)
# Construct: purchased Promega (in-house HiBiT-GPCR construct library, NanoBRET)
# Sequence (Q96RI0 18-385): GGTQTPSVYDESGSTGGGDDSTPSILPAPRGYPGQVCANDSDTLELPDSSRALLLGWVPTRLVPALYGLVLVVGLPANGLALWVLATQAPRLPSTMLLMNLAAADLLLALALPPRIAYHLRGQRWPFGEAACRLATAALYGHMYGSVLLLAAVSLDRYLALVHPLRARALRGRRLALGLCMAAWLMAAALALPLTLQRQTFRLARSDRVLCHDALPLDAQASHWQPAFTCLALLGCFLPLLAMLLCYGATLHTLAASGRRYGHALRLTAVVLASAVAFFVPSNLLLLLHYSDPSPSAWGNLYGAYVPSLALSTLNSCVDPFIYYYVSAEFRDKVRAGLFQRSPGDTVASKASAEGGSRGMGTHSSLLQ
# ASSAY NOTES: NanoBRET screen HiBiT-F2RL3 in HEK293
# Type: binding
# MEASUREMENT SETUP: F2RL3; tracer 1μM
READOUT LABEL: NanoBRET Fold Response
One number for each entry.

In the examples that follow, each entry is paired with its recorded NanoBRET Fold Response.
INSERT INTO measurements (compound, readout_label, recorded_result) VALUES
  ('CC(C)N(CC[C@H](c1ccccc1)c1cc(CCNC(=O)CCOCCOCCOCCOCCNC(=O)CCc2ccc3n2[B-](F)(F)[N+]2=C(c4ccc[nH]4)C=CC2=C3)ccc1O)C(C)C', 'NanoBRET Fold Response', 0.97),
  ('O=C(CCc1ccc2n1[B-](F)(F)[N+]1=C(c3ccc[nH]3)C=CC1=C2)NCCOCCOCCNC(=O)OCCOCCN1CCN(C2=Nc3ccccc3Sc3ccccc32)CC1', 'NanoBRET Fold Response', 0.84);

Consider the following items and state reported NanoBRET Fold Response for each.
1. N#CN=C(NCCCOc1cccc(CN2CCCCC2)c1)NCCNC(=O)CCOCCOCCOCCOCCNC(=O)CCc1ccc2n1[B-](F)(F)[N+]1=C(c3ccc[nH]3)C=CC1=C2
2. O=C(CCOCCOCCOCCOCCNC(=O)CCc1ccc2n1[B-](F)(F)[N+]1=C(c3ccc[nH]3)C=CC1=C2)NCCCN1CCN(C2=Nc3ccccc3Oc3ccc(Cl)cc32)CC1
3. O=C(CCc1ccc2n1[B-](F)(F)[N+]1=C(c3ccc[nH]3)C=CC1=C2)NCc1ccc(C(=O)NCCOCCC(=O)N[C@@H]2CC[C@@]3(O)[C@H]4Cc5ccc(O)c6c5[C@@]3(CCN4CC3CC3)[C@H]2O6)cc1 [Naltrexone-3-NB590]

*A*
1.06
1.02
1.03

Cited source for all entries: paper PMC8151276
